Tested on: Bacillus subtilis
method-notes: Contact germicidal screen, Bacillus subtilis ATCC No. 60511
Assay type: cell-based
study-conditions: 1000 PPM; 0.1M NaOAc pH 4.6
reported-property: Sterilization Time (summary) (min)
A number alone suffices; assume min.

INPUT: GET /values?readout=Sterilization Time (summary)&item= CC(C)(CCC(=O)O)N(Cl)Cl [(III), 4-Dichloroamino-4-methylvaleric acid]
OUTPUT: 0.5

INPUT: GET /values?readout=Sterilization Time (summary)&item= CC(C)(CC(=O)O)N(Cl)Cl [(II)]
OUTPUT: 0.5

INPUT: GET /values?readout=Sterilization Time (summary)&item= CC(C)(COC(=O)CCC(=O)O)N(Cl)Cl [(IV)]
OUTPUT: 0.5

INPUT: GET /values?readout=Sterilization Time (summary)&item= CC(C)(COC(=O)CCCC(=O)O)N(Cl)Cl [(V)]
OUTPUT: 0.5
